Reference source for all entries: paper PMC12064818

target under test: FLuc-C-HiBiT (Photinus pyralis)
Construct: firefly luciferase with C-terminal HiBiT tag, E. coli expressed
Sequence (P08659 whole entry, looked up): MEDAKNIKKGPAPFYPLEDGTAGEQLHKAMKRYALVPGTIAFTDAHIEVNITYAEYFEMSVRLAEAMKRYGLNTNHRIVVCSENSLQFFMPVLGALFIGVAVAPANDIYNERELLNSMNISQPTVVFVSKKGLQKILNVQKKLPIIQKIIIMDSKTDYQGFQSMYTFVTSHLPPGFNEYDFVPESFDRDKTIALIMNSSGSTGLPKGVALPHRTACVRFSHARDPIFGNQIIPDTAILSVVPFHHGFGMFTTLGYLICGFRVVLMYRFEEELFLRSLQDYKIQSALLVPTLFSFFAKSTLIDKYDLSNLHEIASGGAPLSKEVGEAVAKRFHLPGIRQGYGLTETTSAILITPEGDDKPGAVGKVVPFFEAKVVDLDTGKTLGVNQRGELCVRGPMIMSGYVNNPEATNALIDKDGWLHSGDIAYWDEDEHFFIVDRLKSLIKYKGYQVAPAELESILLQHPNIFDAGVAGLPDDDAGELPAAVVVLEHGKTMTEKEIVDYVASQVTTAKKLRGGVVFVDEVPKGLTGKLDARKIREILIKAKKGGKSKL
test summary: biochemical
protocol conditions: enzyme activity, 10 uM ATP; read-out: IC50 or SDR50 (mM) / FLuc E
recorded metric: IC50

- compound: "CCn1cc(-c2ccc(Cl)cc2)cc1C(=O)O"
  IC50: "> 0.03 mM"

Looking for the measured IC50 of COc1ccc(-c2nc3ccccc3s2)cc1NC(=O)c1cc2ccccc2o1 , can you help?
> 0.03 mM

Looking for the measured IC50 of CC(C)Oc1ccc(C(=O)Nc2ccc(-c3nc4ccccc4s3)cc2)cc1 , can you help?
> 0.03 mM

Looking for the measured IC50 of COc1ccc(-c2nc3ccccc3s2)cc1NC(=O)COc1cccc(C)c1 , can you help?
> 0.03 mM

Looking for the measured IC50 of COc1cc(OC)cc(C(=O)Nc2ccccc2-c2nc3ccccc3s2)c1 , can you help?
> 0.03 mM

Looking for the measured IC50 of Cc1ccc(C(=O)Nc2ccc(-c3nc4ccccc4s3)c(O)c2)c(C)c1 , can you help?
> 0.03 mM

Looking for the measured IC50 of CCCCNc1nc(N)c2[nH]c(=O)n(Cc3ccc(OCCN(C)C)nc3)c2n1 , can you help?
> 0.03 mM

Looking for the measured IC50 of Oc1ccccc1CN1CCNc2cc(-c3ccccc3)ncc2C1 , can you help?
0.0161 mM

Looking for the measured IC50 of CN1c2cc(C(=O)Nc3ccccc3)ccc2C(=O)N2CCCCCC21 (stereo not drawn) , can you help?
0.0111 mM

Looking for the measured IC50 of COc1ccc(C(=O)Nc2ccc(-c3nc4ccccc4s3)cc2C)cc1Cl , can you help?
> 0.03 mM

Looking for the measured IC50 of CCOc1ccc(NC(=O)C2CCN(C(=O)c3ncn4c3COC(c3ccccc3)C4)CC2)cc1 (stereo not drawn) , can you help?
0.007 mM

Looking for the measured IC50 of CCCNc1cc(N2CCC(CCC(=O)Nc3ccc4c(c3)OCCO4)CC2)ncn1 , can you help?
0.00989 mM

Looking for the measured IC50 of Fc1cc(Nc2cnc3ccc(-c4ccccc4)nn23)cc(N2CCOCC2)c1 , can you help?
0.0161 mM

---

target under test: FLuc-C-HiBiT (Photinus pyralis)
Construct: firefly luciferase with C-terminal HiBiT tag, E. coli expressed
test summary: biochemical
protocol conditions: enzyme activity, 10 uM ATP; read-out: IC50 or SDR50 (mM) / FLuc E
recorded metric: IC50

- mol smiles: "COc1ccc(CN2CCOC[C@H](OCC(=O)N(C)C)C2)cc1"
  target under test: "FLuc-C-HiBiT (Photinus pyralis)"
  IC50: "> 0.03 mM"
- mol smiles: "CCn1cc(-c2ccc(C)cc2)cc1C(=O)O"
  target under test: "FLuc-C-HiBiT (Photinus pyralis)"
  IC50: "> 0.03 mM"

Lab request: please report IC50 under test system FLuc-C-HiBiT (Photinus pyralis) for O=C(NCCC1CCN(C(=O)Nc2cc(F)cc(F)c2)CC1)c1ccc(F)cc1
> 0.03 mM

---

target under test: ABL1-N-HiBiT kinase domain (Homo sapiens, UniProt P00519)
Sequence (P00519 233-500): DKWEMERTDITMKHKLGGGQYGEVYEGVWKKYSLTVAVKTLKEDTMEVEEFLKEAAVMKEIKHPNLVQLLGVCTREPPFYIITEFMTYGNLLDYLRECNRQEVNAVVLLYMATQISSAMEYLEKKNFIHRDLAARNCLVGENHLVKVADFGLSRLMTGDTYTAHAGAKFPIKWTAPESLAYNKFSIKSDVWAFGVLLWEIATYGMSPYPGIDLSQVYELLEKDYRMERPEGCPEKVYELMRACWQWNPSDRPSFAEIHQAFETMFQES
test summary: SDR assay, ABL1-N-HiBiT
protocol conditions: ABL1, SDR; heatmap data, 128 kinase inhibitors
Counter-ions that a name gives are not always drawn.
# ABL1 SDR pSDR50 values compiled below
Respond numerically, and do not add a unit to the figure.

- compound: "COc1cc(N2CCC(N3CCN(C)CC3)CC2)ccc1Nc1ncc(Cl)c(Nc2ccccc2P(C)(C)=O)n1"
  reported: 6.12
- compound: "C#Cc1cccc(Nc2ncnc3cc4c(cc23)OCCOCCOCCO4)c1 [Icotinib HCl]"
  reported: 5.03
- compound: "C=CC(=O)N1CCC[C@@H](n2nc(-c3cccc(C(=O)Nc4ccc(C(C)C)c(C)c4)c3)c3c(N)ncnc32)C1"
  reported: 5.11

Looking for the measured ABL1 SDR pSDR50 of COc1cc2nccc(Oc3ccc(NC(=O)Nc4ccc(F)cc4F)c(F)c3)c2cc1OC , can you help?
6.18

Looking for the measured ABL1 SDR pSDR50 of c1cc(-c2cc(C3CCNCC3)[nH]n2)ccn1 [ETP 45835 2HCl] , can you help?
5.02

---

# Efficacy (%) FLuc-C-NLuc SDR (-ATP) values compiled below
target under test: FLuc-C-NLuc (firefly luciferase) (Photinus pyralis, UniProt P08659, form not given/L550V)
Sequence (P08659 2-550 L550V, form open): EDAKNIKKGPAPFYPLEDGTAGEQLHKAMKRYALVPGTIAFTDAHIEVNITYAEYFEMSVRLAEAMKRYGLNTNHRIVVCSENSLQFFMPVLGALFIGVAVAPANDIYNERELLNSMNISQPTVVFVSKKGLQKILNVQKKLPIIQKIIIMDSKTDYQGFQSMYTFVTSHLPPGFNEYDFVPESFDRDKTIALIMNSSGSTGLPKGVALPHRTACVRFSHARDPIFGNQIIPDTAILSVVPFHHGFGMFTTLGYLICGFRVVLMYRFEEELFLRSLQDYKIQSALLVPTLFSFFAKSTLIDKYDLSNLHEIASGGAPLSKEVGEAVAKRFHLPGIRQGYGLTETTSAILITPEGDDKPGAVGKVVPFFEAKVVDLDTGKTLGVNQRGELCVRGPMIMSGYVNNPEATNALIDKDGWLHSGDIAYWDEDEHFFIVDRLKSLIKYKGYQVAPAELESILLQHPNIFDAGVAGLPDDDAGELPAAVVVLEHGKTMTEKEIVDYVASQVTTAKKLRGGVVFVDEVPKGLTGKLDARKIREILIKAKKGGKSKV
test summary: SDR assay, FLuc-C-NLuc
protocol conditions: - ATP
// note: answer is a bare numeric in %

Answered cases to consult:
- compound: "COc1ccc(CNC(=O)C2CCN(C(=O)c3ncn4c3COC(c3ccccc3)C4)CC2)cc1 (stereo not drawn)"
  reported: 0.00
- compound: "O=C(NCc1ccncc1)C1CCN(C(=O)c2ncn3c2COC(c2ccccc2)C3)CC1 (stereo not drawn)"
  reported: 0.00
- compound: "O=C(NC1CC1)C1CCN(C(=O)c2ncn3c2COC(c2ccc(Cl)cc2)C3)CC1 (stereo not drawn)"
  reported: 0.00
- compound: "O=C(NC1CCCCC1)C1CCN(C(=O)c2ncn3c2COC(c2ccc(Cl)cc2)C3)CC1 (stereo not drawn)"
  reported: 0.00
- compound: "Cc1ccc(C2Cn3cnc(C(=O)N4CCC(C(=O)NCCC(C)C)CC4)c3CO2)cc1 (stereo not drawn)"
  reported: 0.00

Okay, now this compound:
Looking for the measured Efficacy (%) FLuc-C-NLuc SDR (-ATP) of O=C(Nc1ccc(F)cc1)C1CCN(C(=O)c2ncn3c2COC(c2ccccc2)C3)CC1 (stereo not drawn) , can you help?
0.00

---

target under test: P. pyralis FLuc (Photinus pyralis, UniProt P08659)
test summary: FLuc enzymatic luminescence assay, P. pyralis FLuc
Format: biochemical
protocol conditions: FLuc enzymatic assay; Clade S follow-up; read-out: IC50 or SDR50 (mM) FLuc E
Method: The enzyme activity of FLuc-N-HiBiT, FLuc-C-HiBiT, and FLuc-C-NLuc was measured similar to P. pyralis firefly luciferase (FLuc) as previously described. […] Luciferin was incubated with FLuc enzyme for 5 min before FLuc activity was then measured on a ViewLux CCD imager (PerkinElmer), with exposure times up to ten seconds with medium to high gain settings. […] 5 Detector ViewLux Read plate lum inescence (Exposure = 1- 10 sec; Gain = Medium -high; Speed = Slow; […]
# IC50 values compiled below
// note: answer is a bare numeric in mM

Looking for the measured IC50 of O=C(Nc1ccc(F)c(F)c1)C1CCN(C(=O)c2ncn3c2COC(c2ccc(F)cc2)C3)CC1 (centres unmarked) , can you help?
0.0111

Looking for the measured IC50 of Cc1ccc(C2Cn3cnc(C(=O)N4CCC(C(=O)NCc5ccccc5C)CC4)c3CO2)cc1 (centres unmarked) , can you help?
0.0111

Looking for the measured IC50 of Cc1ccc(C2Cn3cnc(C(=O)N4CCC(C(=O)NCc5ccco5)CC4)c3CO2)cc1 (centres unmarked) , can you help?
0.00988

Looking for the measured IC50 of Cc1cccc(NC(=O)C2CCN(C(=O)c3ncn4c3COC(c3ccccc3)C4)CC2)c1 (centres unmarked) , can you help?
0.00221

Looking for the measured IC50 of O=C(NCC1CCCO1)C1CCN(C(=O)c2ncn3c2COC(c2ccc(F)cc2)C3)CC1 (centres unmarked) , can you help?
0.00988

Looking for the measured IC50 of O=C(NCc1ccccc1)C1CCN(C(=O)c2ncn3c2COC(c2ccc(Cl)cc2)C3)CC1 (centres unmarked) , can you help?
0.0124

Looking for the measured IC50 of CCc1ccc(NC(=O)C2CCN(C(=O)c3ncn4c3COC(c3ccc(F)cc3)C4)CC2)cc1 (centres unmarked) , can you help?
0.0111

Looking for the measured IC50 of Cc1ccc(C2Cn3cnc(C(=O)N4CCC(C(=O)NC5CCCC5)CC4)c3CO2)cc1 (centres unmarked) , can you help?
0.0111

Looking for the measured IC50 of Cc1ccc(C2Cn3cnc(C(=O)N4CCC(C(=O)NC(C)c5ccccc5)CC4)c3CO2)cc1 (centres unmarked) , can you help?
0.0111

Looking for the measured IC50 of COc1ccc(C)cc1NC(=O)C1CCN(C(=O)c2ncn3c2COC(c2ccc(F)cc2)C3)CC1 (centres unmarked) , can you help?
0.0088

Looking for the measured IC50 of COc1ccc(CNC(=O)C2CCN(C(=O)c3ncn4c3COC(c3ccc(C)cc3)C4)CC2)cc1 (centres unmarked) , can you help?
0.0111

---

target under test: FLuc-C-HiBiT (Photinus pyralis)
Construct: firefly luciferase with C-terminal HiBiT tag, E. coli expressed
test summary: biochemical
protocol conditions: enzyme activity, 10 uM ATP; read-out: IC50 or SDR50 (mM) / FLuc E
# IC50 values compiled below

Answered cases to consult:
- compound: "COc1cc(OC)cc(C(=O)Nc2cc(-c3nc4ccccc4s3)ccc2OC)c1"
  target under test: "FLuc-C-HiBiT (Photinus pyralis)"
  IC50: "> 0.03 mM"
- compound: "O=C1c2cnc(-c3ccc(CO)cc3)nc2OCCN1CC1CC1"
  target under test: "FLuc-C-HiBiT (Photinus pyralis)"
  IC50: "0.0114 mM"

Looking for the measured IC50 of CCOC(=O)c1cc(-c2ccccc2)nn1Cc1ccccc1 , can you help?
> 0.03 mM

Looking for the measured IC50 of CCc1ccc(NC(=O)N2CCCC(c3noc(COc4ccccc4)n3)C2)cc1 (stereo not drawn) , can you help?
0.00279 mM

Looking for the measured IC50 of COc1ccc(-c2noc(Nc3ccccc3)n2)cc1 , can you help?
0.00221 mM

Looking for the measured IC50 of Cc1ccc(C(=O)COC(=O)c2cc(-c3cccs3)nc3ccccc23)cc1 , can you help?
0.0124 mM
